Property: Cardiac frequency, max effect at 3 mg/kg; scope: individual molecules
Test system: spontaneously hypertensive (SHR) rat
Experiment: Anti-hypertensive activity in the spontaneously hypertensive (SHR) rat (oral)
Assay type: in vivo
Conditions: 3 mg/kg
From the text: Animals having a mean basal systolic pressure of not less than 180 mmHg were used.
Structures can show the parent of a compound that is named as a salt.

Example results:
{"columns": ["Molecule", "Test System", "Cardiac frequency, max effect at 3 mg/kg"],
 "data": [
  ["COc1cc2nc(N3CCC(c4ccccn4)CC3)nc(N)c2cc1OC [Compound 7, (hydrochloride)]", "spontaneously hypertensive (SHR) rat", "+0.9 % vs basal"],
  ["COc1cc2nc(N3CCC(c4ccco4)CC3)nc(N)c2cc1OC [Compound 4]", "spontaneously hypertensive (SHR) rat", "+0.6 % vs basal"],
  ["COc1cc2nc(N3CCC(c4ccccc4OC)CC3)nc(N)c2cc1OC [Compound 2]", "spontaneously hypertensive (SHR) rat", "+2.1 % vs basal"],
  ["COc1cc2nc(N3CCC(c4cccs4)CC3)nc(N)c2cc1OC [Compound 6]", "spontaneously hypertensive (SHR) rat", "+2.7 % vs basal"],
  ["COc1ccc(CCN(C)CCCC(C#N)(c2ccc(OC)c(OC)c2)C(C)C)cc1OC (stereo not drawn) [Verapamil, reference compound]", "spontaneously hypertensive (SHR) rat", "+2.8 % vs basal"]
]}

Then this molecule:
Determine its reported Cardiac frequency, max effect at 3 mg/kg: COc1cc2nc(N3CCN(C(=O)c4ccco4)CC3)nc(N)c2cc1OC [Prazosin, reference compound]
+9.7 % vs basal
